- System: Bacteroides caccae
- assay-protocol: growth AUC relative to DMSO control (median of replicates) (fraction); higher = more growth (less inhibition), active = hit call of the paper;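 active = AUC reduced over 20% with Padj below 0.05 in at least 2 of 3 replicates; inactive = otherwise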
- test-conditions: 20 µM; 24 h
Outcome codes: 1 (yes) for active, 0 (no) for inactive

> print(dat)
                                    molecule  category.label
 1               COP(=S)(OC)Oc1ccc(SC)c(C)c1          0 (no)
 2  CCCCCCCCCCCCCN1CC(C)OC(C)C1 (stereo unspecified)          0 (no)
 3                                CCN(CC)N=O          0 (no)
 4  CCc1ccc(C(=O)NN(C(=O)c2cc(C)cc(C)c2)C(C)(C)C)cc1          0 (no)
 5                         Nc1cc(Cl)cc(Cl)c1          0 (no)
 6  O=[N+]([O-])c1cc(C(F)(F)F)c(Cl)c([N+](=O)[O-])c1Nc1ncc(C(F)(F)F)cc1Cl         1 (yes)
 7          C#CC(C)(C)NC(=O)c1cc(Cl)cc(Cl)c1          0 (no)
 8  ClC1(Cl)C2(Cl)C3(Cl)C4(Cl)C(Cl)(Cl)C5(Cl)C3(Cl)C1(Cl)C5(Cl)C24Cl (stereo unspecified)          0 (no)
 9                       c1ccc(-c2ccccc2)cc1          0 (no)
10  Cc1ccccc1CO[C@@H]1C[C@@]2(C(C)C)CC[C@]1(C)O2 (mixture of isomers)          0 (no)
11  COC(=O)NCc1cc(/C(C)=N/OCc2cccc(C)n2)ccc1Cl          0 (no)

* * *

- Tested on: Fusobacterium nucleatum subsp. animalis
- assay-protocol: growth AUC relative to DMSO control (median of replicates) (fraction); higher = more growth (less inhibition), active = hit call of the paper
- test-conditions: 20 µM; 24 h
Decide by growth AUC: equal to or exceeding 1 means condition met, less means condition not met.

> print(dat)
                                    compound     category.label
 1             CCOc1cc(OP(=S)(OC)OC)nc(CC)n1      condition met
 2  C=CCOC(=O)C(C)(C)OC(=O)c1cc(-n2c(=O)cc(C(F)(F)F)n(C)c2=O)ccc1Cl      condition met
 3    CCOC(=O)c1cn2nc(OP(=S)(OCC)OCC)cc2nc1C  condition not met
 4                CCOP(=S)(OCC)SCS(=O)(=O)CC      condition met
 5        COc1ccc(-c2ccccc2)cc1NNC(=O)OC(C)C  condition not met
 6  CC(Oc1ccc(Oc2ccc(C(F)(F)F)cn2)cc1)C(=O)O (stereo not drawn)  condition not met
 7                 Clc1cc(Cl)nc(-c2ccccc2)n1      condition met
 8          CCOP(=S)(OCC)Oc1cc(C)nc(C(C)C)n1      condition met
 9   C[Si](Cn1cncn1)(c1ccc(F)cc1)c1ccc(F)cc1  condition not met
10  CCOc1nc(NC)nc(NC(=O)NS(=O)(=O)c2ccccc2C(=O)OC)n1      condition met
11  CC1(C)CN=C(NN=C(/C=C/c2ccc(C(F)(F)F)cc2)/C=C/c2ccc(C(F)(F)F)cc2)NC1      condition met
12  CC(C)N(C(=O)COc1nnc(C(F)(F)F)s1)c1ccc(F)cc1      condition met
13                       Oc1c(Cl)ccc(Cl)c1Cl      condition met
14            COP(=S)(OC)Oc1cc(Cl)c(Cl)cc1Cl      condition met
15                            Cc1cc(Cl)ccc1O      condition met
16       COP(=O)(OC)O/C(=C\Cl)c1ccc(Cl)cc1Cl      condition met
17     CNc1cnn(-c2cccc(C(F)(F)F)c2)c(=O)c1Cl  condition not met
18          Clc1ccccc1-c1nnc(-c2ccccc2Cl)nn1  condition not met

Values from the supplement of paper PMC12669032
